Target: T1, recombinant purified human IL-12 p70 (human, UniProt P29459 23-219)
T1 sequence 1: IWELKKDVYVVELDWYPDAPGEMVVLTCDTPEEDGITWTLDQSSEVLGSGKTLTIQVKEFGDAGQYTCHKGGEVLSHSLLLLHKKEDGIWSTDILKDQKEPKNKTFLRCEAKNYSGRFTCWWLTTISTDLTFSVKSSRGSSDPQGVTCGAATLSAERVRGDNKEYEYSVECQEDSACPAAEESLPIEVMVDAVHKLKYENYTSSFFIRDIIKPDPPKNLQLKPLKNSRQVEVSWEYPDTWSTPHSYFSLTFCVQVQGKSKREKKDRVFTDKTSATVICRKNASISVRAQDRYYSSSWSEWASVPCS
T1 sequence 2: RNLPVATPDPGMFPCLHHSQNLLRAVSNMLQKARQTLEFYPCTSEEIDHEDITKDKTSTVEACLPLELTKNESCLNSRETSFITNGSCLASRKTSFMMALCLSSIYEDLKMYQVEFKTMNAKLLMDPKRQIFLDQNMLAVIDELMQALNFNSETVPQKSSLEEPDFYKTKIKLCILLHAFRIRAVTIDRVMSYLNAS
Assay: cell-based or functional assay
We begin with a simple list: items and their reported Average IC50 (nM) Human IL-12, PHA blast IFN-γ assay.
READOUT_KIND: Average IC50 (nM) Human IL-12, PHA blast IFN-γ assay

# BINDER, MEASURED
rows = [
    ("chimeric anti-human IL-12p40 antibody 1A6-Chim (antibody, human IgG1, kappa, L234A L235A, V domains shown) VH: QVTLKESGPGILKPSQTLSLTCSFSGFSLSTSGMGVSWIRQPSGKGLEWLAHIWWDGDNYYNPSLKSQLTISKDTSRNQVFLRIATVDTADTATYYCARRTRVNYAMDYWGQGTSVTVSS VL: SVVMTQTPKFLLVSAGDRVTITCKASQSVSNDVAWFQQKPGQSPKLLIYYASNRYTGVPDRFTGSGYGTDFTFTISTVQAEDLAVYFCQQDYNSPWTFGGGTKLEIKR", 0.021),
    ("chimeric antibody 3G7/1D4-Chim (chimeric 3G7 heavy chain with 1D4 chimeric light chain) (antibody, human IgG1, kappa, L234A L235A, V domains shown) VH: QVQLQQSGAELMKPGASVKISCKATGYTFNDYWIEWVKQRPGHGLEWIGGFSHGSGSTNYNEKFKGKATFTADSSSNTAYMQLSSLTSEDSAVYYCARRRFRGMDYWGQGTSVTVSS VL: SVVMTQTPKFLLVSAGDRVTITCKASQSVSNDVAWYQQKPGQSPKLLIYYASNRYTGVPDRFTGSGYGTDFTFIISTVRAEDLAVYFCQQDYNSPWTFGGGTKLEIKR", 0.11),
    ("chimeric anti-human IL-12p40 antibody 1D4-Chim (antibody, human IgG1, kappa, L234A L235A, V domains shown) VH: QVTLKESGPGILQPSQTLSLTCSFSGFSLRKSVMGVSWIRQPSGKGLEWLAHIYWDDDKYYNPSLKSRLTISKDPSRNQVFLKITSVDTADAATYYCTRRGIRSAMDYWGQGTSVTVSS VL: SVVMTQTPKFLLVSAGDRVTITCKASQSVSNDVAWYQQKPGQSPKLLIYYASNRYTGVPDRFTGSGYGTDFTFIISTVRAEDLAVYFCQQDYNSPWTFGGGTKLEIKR", 0.021),
    ("chimeric anti-human IL-12p40 antibody 3G7-Chim (antibody, human IgG1, kappa, L234A L235A, V domains shown) VH: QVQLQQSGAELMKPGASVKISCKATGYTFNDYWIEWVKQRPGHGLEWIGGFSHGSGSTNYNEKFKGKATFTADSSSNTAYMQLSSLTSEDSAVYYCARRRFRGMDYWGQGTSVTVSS VL: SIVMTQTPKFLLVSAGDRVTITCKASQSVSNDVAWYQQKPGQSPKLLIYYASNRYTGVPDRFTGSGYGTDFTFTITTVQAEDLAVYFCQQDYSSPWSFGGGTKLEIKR", 0.12),
    ("chimeric anti-human IL-12p40 antibody 8E1-Chim (antibody, human IgG1, kappa, L234A L235A, V domains shown) VH: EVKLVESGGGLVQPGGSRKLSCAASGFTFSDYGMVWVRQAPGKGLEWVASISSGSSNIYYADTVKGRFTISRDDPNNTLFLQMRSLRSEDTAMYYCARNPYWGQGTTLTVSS VL: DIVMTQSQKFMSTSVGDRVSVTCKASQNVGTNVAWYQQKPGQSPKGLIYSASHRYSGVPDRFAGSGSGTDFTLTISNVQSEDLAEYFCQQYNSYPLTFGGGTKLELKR", 0.17),
]

This collection of values is drawn from patent US20140178332A1.
